Value source: a melting point compilation (Tetko et al.; mined from patent text by program, amines drawn as free bases though some values may be those of a salt)

Some molecules, each annotated with its measured melting point.

Completed entries (count: 2):
>>> df
                               given_smiles  endpoint_name       reported
0  Cc1ccc(CSc2nc3cc4c(cc3[nH]2)C(C)(C)CCC4(C)C)nc1  melting point  187 to 188 °C
1  CC(C)CCOc1c(-c2ccc(S(C)(=O)=O)cc2)cnn(CC(F)(F)F)c1=O  melting point  111 to 113 °C

Okay, now this molecule:
I would be grateful if you could share the reported melting point for CCOC(=O)C(=NO)c1cccc(Br)c1 .
113 to 114 °C

###

endpoint.name: melting point

Completed entries (count: 4):
>>> print(df.to_string())
                                   compound  endpoint_name     reported
0  COc1ccccc1NC(=O)c1ccc(COC2CCCCO2)cc1 (stereo not given)  melting point  67 to 70 °C
1  COc1ccc(COC(=O)CCc2nc(-c3ccc(Cl)cc3)co2)cc1  melting point  69 to 70 °C
2         O=C(Nc1ccc2ccc(Cl)nc2n1)C1=CSCCS1  melting point       237 °C
3  CCCCOC1C=CC(=O)N1S(=O)(=O)c1ccc(OC)cc1 (stereo not given)  melting point  65 to 66 °C

Please look up its melting point: COc1cc2c(cc1OC)CC(=O)N(CCCCl)C=C2
84 to 85 °C

And for NC(=O)NC1CCC(c2ccccc2-n2nc(C(F)(F)F)cc2C(F)(F)F)CC1 (stereo not given) ?
185 to 188 °C

What do we get for Cc1c(C(=O)NC2CCN(Cc3ccccc3)CC2)c2cc(F)ccc2n1Cc1ccccc1 ?
194 to 195 °C

Similarly, O=C(NCCCc1ccncc1)N(CCC12CC3CC(CC(C3)C1)C2)Cc1cccs1 ?
142 to 144 °C

Same thing, different compound: COc1ccc(C2CCC(c3ccc4ccccc4c3)O2)cc1OC (stereo not given)
74 to 77 °C

Also check COc1cccc(O)c1-c1ccc(C[C@H](NC(=O)c2c(Cl)cccc2Cl)C(=O)O)cc1
224 °C

###

endpoint.name: melting point

>>> df
                                   compound       reported
0  Cc1cc(-c2c(C)nc3ccc(N4CCNC(C)(C)C4)nn23)ccn1  110 to 112 °C
1  CCCCCCCCCCCCCCCCCCOc1cc(OCc2ccc3ccccc3n2)cc(N(CC(=O)O)CC(=O)O)c1  172 to 174 °C
2  CCOC(=O)c1csc(NC(=O)C(CC2CCCC2)c2ccc(NC(=O)c3cccnc3)cc2)n1 (centres undefined)  222 to 223 °C

Endpoint output: melting point of Cc1cc(-c2sc(N3CCN(Cc4cccc(C(F)(F)F)c4)C3=O)nc2C)n[nH]1 . Value?
163 to 164 °C

# repeat for O=c1c(Br)c(O)ccn1Cc1ccc(O)cc1
102 to 108 °C

Can you check CN1CCCC1=NC(=O)Nc1ccc([N+](=O)[O-])cc1 next?
180 to 182 °C

Follow-up item: CC1Cc2cc3c(cc2C(c2ccc([N+](=O)[O-])cc2)=NN1C#N)OCO3 (centres undefined)
172 to 176 °C

Can you handle Cc1cn(C)cc(-c2cccc(C(F)(F)F)c2)c1=O next?
130 to 131 °C

And then CCOC(=O)c1cn(C(C)C(OC)OC)c2c(F)c(F)c(F)cc2c1=O (centres undefined) , what is it?
125 to 126 °C
